Data credit: the RNAGym collection of RNA variant scans (doi:10.7554/elife.80360)

Each entry below lists one item and its recorded self-cleavage value.
B1: HDV Ribozyme (parent)
chain: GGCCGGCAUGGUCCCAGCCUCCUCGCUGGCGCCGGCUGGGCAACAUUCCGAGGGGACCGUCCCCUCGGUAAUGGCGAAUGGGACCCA

# Variants of: B1
# TEST SUMMARY: self-cleavage, relative activity (ratio to wild type); higher = more cleavage; co-transcriptional
The answer should be written as a number, with no unit following it.

{"MUTATION DESCRIPTOR": "A8G U79C", "QUANTITY NAME": "self-cleavage", "REPORTED VALUE": 0.256}
{"MUTATION DESCRIPTOR": "G17C G28U", "QUANTITY NAME": "self-cleavage", "REPORTED VALUE": 0.0707}

IN: Please report self-cleavage for the following variant: U65G A77U
OUT: 0.554

IN: Please report self-cleavage for the following variant: C49A A56G
OUT: 1.11
